B1: SMG5 (parent)
chain: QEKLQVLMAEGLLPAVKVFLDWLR

Variants of: B1
protocol-details: protein stability index of a GFP-peptide fusion (GPS, HEK-293T) (PSI 1-6); higher = more stable;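 note: lentivirally expressed fusions sorted by FACS into six bins by GFP to DsRed ratio, PSI derived from sequencing read proportions per bin multiplied by bin number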
setup-conditions: c terminus: a fixed tail appended
result-type: protein stability index
Output: the number by itself.

"Q1T" yielded protein stability index of 1.96

Value of measured protein stability index for the entry "V18K" : 2.05

The measured protein stability index associated with "F19G" reads 3.15

Kindly note the recorded protein stability index for "Q5F" , which is 1.46

Documented protein stability index of "K17I" : 2.31

Consider "L7P" . Its measured protein stability index is 2.26

So for "V18F" , the logged protein stability index turned out to be 1.94

# protein stability index of "L13D" = 1.98

The value of protein stability index measured for the variant "K17Q" turned out to be 1.44

Sure, the documented protein stability index for "L12F" is 1.91

"L23R" yielded protein stability index of 2.38

Please fill in: protein stability index reported for "E10M" = 1.85

Recorded protein stability index (variant "A15S" ): 2.39

Sample "V16Q" ; protein stability index observed: 1.86

Record summary for "L12A" : reported protein stability index = 1.61

Lab book: protein stability index of "L23Q" noted as 1.91

Data point: "L4V" ; protein stability index = 2.58

// "L13A" : protein stability index value = 2.36

Just so you know, measured protein stability index for "L20S" came out at 2.73

Notebook: "Q1C" , protein stability index read as 1.53

"E2R" yielded protein stability index of 2.37

Item: "M8K" | protein stability index: 2.8

protein stability index for "D21N" is 2.6

The recorded protein stability index for "P14D" is 2.29

Please fill in: protein stability index reported for "A15M" = 2.05

protein stability index in this record for "L23W" : 1.7

Input "L20G" . Output protein stability index: 1.77

The value of protein stability index measured for the variant "L23P" turned out to be 2.21

The value of protein stability index measured for the variant "L13G" turned out to be 2.17

Entry under test: "V16I" . Its protein stability index was 2.16

What the record says about "V16H" : protein stability index is 1.93

So for "L23Y" , the logged protein stability index turned out to be 1.97

The variant listed as "Q5D" has a reported protein stability index of 3.13

Value of protein stability index reported for the variant "D21I" is 2.5

protein stability index in this record for "P14I" : 1.19

Per the record, "E2N" has protein stability index of 2.86

Notebook: "E10P" , protein stability index read as 2.12

Per the records, this variant ( "L12E" ) has protein stability index equal to 2.32

Lab note: measured protein stability index of "V6M" was 1.48

Record "E10R" . Reported protein stability index: 1.95

Noted for "L7S" : its protein stability index reads 1.67

Recorded protein stability index (variant "L4I" ): 1.91

Lab note: "F19R" gave protein stability index of 2.12

The measured protein stability index associated with "G11Q" reads 1.69

According to the records, this variant "L13H" displays protein stability index of 2.6

What the record says about "F19D" : protein stability index is 2.14

// field: protein stability index; key: "A9W" ; value = 1.78

So, "A9Q" ? Its protein stability index was 2.82

Query "Q1G" yields protein stability index of 2.22

In plain terms, "E10S" has a documented protein stability index of 2.61

protein stability index in this record for "A9C" : 2.63

The variant "K3L" showed protein stability index equal to 1.78

Looking up "L23C" , I see its protein stability index listed as 1.08

Entry "V16W" — recorded protein stability index = 1.96

The recorded protein stability index for "L13M" is 2.27

// sample "L12R" , its protein stability index was 3.06

Reported protein stability index of "L4D" : 3.26

protein stability index recorded for this variant, "W22I" , is 1.96

The variant "V18A" showed protein stability index equal to 2.19

So, "W22S" ? Its protein stability index was 2.17

For this variant ( "V16A" ), measured protein stability index is 1.67

Reported protein stability index of "E10C" : 2.58

// field: protein stability index; key: "Q5G" ; value = 1.88

The variant identified as "M8A" registered its protein stability index at 2.54

Recorded protein stability index (variant "L7D" ): 1.94

"L13W" has a reported protein stability index of 2.62

Item: "A9H" | protein stability index: 2.41

So for "E2T" , the logged protein stability index turned out to be 2.68
